# assay_comment: Neutral Red cell viability assay on JEG-Tox cells, 72 h
# Format: cell-based, human
# measurement_context: human; 50 μM, 72 h; read-out: cell viability
observation_type: viability at 72 h, 50 µM (%)

[[record]]
molecule = "CCCCOC(=O)c1ccccc1C(=O)OCc1ccccc1 [benzyl butyl phthalate]"
observation_type = "viability at 72 h, 50 µM"
readout_units = "%"
recorded_value = 40


====

# assay_comment: Neutral Red cell viability assay on JEG-Tox cells, 72 h
# Type: cell-based, human
# measurement_context: human, JEG-Tox cells; 50 μM, 72 h; read-out: cell viability
observation_type: viability at 72 h, 50 µM (%)

[[record]]
compound = "CCCCC(CC)COC(=O)c1ccccc1C(=O)OCC(CC)CCCC (centres unmarked) [DEHP, Di(2-ethylhexyl)phtalate]"
observation_type = "viability at 72 h, 50 µM"
readout_units = "%"
recorded_value = 25

[[record]]
compound = "CC12CCC(/C(=C/c3ccccc3)C1=O)C2(C)C (centres unmarked)"
observation_type = "viability at 72 h, 50 µM"
readout_units = "%"
recorded_value = 70


====

# assay_comment: Neutral red cell viability of JEG-3 cells with SLS or PFOA in 10% or 2.5% FBS
# measurement_context: human
observation_type: viability at 24 h, 120 μg/mL (%)

[[record]]
molecule = "O=C(O)C(F)(F)C(F)(F)C(F)(F)C(F)(F)C(F)(F)C(F)(F)C(F)(F)F [PFOA, perfluorooctanoic acid]"
recorded_value = 85


====

# assay_comment: Neutral Red cell viability assay on JEG-Tox cells, 72 h
# Format: cell-based, human
# measurement_context: human; 100 μM, 72 h; read-out: cell viability
observation_type: viability at 72 h, 100 µM (%)

[[record]]
mol_smiles = "Oc1ccc(Cc2ccc(O)cc2)cc1"
recorded_value = 64


====

# tested_target: P2X7 receptor (Homo sapiens, UniProt Q99572)
# Construct: P2X7 receptor is expressed by human placenta and JEG-Tox; endogenous in cells; host or cells: JEG-3 human trophoblast cell line (ATCC HTB-36) cultured in 2.5% FBS (JEG-Tox)
# Sequence (Q99572 1-595): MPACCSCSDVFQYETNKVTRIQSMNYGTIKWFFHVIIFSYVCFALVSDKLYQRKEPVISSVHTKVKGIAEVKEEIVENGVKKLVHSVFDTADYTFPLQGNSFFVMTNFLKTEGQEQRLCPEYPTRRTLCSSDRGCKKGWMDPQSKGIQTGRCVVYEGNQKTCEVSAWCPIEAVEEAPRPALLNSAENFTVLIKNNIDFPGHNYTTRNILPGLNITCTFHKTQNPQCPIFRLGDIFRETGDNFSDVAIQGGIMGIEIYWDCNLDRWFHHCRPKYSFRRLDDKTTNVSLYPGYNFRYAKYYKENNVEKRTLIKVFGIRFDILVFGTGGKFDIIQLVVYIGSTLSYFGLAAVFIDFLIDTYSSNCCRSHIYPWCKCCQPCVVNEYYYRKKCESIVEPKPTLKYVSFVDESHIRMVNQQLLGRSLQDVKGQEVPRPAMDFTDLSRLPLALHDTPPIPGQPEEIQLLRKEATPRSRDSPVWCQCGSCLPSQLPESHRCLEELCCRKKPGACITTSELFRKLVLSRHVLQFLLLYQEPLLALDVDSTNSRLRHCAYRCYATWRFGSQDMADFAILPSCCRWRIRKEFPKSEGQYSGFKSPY
# Type: cell-based
# measurement_context: 10 μM, 72 h
observation_type: P2X7 receptor activation compared to control (fold change)

[[record]]
compound = "CC12CCC(/C(=C/c3ccccc3)C1=O)C2(C)C (stereo not shown) [3-benzylidene camphor]"
readout_units = "fold change"
recorded_value = 1.50

[[record]]
compound = "CCCCC(CC)COC(=O)c1ccccc1C(=O)OCC(CC)CCCC (stereo not shown) [DEHP, Di(2-ethylhexyl)phtalate]"
readout_units = "fold change"
recorded_value = 1.16

[[record]]
compound = "CCCCOC(=O)c1ccccc1C(=O)OCc1ccccc1 [benzyl butyl phthalate]"
readout_units = "fold change"
recorded_value = 1.36

[[record]]
compound = "CCCCOC(=O)c1ccccc1C(=O)OCCCC [dibutyl phthalate]"
readout_units = "fold change"
recorded_value = 1.6


Numbers sourced from patent US20240118268A1.
